# Test System: T1, human BCMA (human, UniProt Q02223 1-54)
# T1 construct: also called huBCMA; hBCMA
# T1 sequence: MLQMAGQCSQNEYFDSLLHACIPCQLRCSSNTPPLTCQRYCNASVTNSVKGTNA
# Test: SPR, immobilised IgG, 25° C
Measure Name: T½ (min)
Answer with a number only, understood to be in min.

| Binder | Reading |
| --- | --- |
| L1.LGF/L3.NY/H3.AQ (antibody, V domains shown, IgG in the assay) VH: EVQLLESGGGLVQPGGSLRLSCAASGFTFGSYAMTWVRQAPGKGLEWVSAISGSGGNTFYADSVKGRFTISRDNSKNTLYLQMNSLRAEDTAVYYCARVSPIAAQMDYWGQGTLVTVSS VL: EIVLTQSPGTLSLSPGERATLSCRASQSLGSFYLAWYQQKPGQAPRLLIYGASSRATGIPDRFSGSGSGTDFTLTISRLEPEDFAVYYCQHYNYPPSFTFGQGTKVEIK | 38.6 |
| L3.KW/P6E01 (antibody, V domains shown, IgG in the assay) VH: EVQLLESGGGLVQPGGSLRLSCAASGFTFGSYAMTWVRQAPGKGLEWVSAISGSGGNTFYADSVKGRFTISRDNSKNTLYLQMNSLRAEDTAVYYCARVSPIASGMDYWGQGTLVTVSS VL: EIVLTQSPGTLSLSPGERATLSCRASQSVSSSYLAWYQQKPGQAPRLLIYGASSRATGIPDRFSGSGSGTDFTLTISRLEPEDFAVYYCKHYGWPPSFTFGQGTKVEIK | 36.7 |

The record that follows has no T½ shown yet.
[ask] Output T½ of L1.GDF/L3.KW/H3.AP (antibody, V domains shown, IgG in the assay) VH: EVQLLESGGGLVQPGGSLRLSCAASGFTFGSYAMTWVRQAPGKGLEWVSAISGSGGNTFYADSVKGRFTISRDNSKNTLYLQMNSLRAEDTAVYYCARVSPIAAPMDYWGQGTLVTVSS VL: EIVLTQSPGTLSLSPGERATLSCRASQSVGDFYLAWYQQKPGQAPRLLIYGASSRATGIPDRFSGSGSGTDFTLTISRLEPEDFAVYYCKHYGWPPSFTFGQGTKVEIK
[reply] 2.51
